Target chain: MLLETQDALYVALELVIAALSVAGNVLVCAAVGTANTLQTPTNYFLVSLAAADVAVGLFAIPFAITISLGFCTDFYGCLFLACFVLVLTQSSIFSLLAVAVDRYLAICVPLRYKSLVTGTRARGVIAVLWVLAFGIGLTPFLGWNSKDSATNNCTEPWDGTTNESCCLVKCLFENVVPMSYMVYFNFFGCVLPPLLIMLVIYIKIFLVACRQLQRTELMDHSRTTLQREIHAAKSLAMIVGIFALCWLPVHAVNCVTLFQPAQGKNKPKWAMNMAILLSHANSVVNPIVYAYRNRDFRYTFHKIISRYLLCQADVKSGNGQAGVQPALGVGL
pKi: −log10 of the molar value.
Dear all, I have gathered published pKi values for the protein given by its sequence; the list follows.
READOUT TYPE: pKi

The following molecules have reported results that may help.
                                   molecule  result_number
0  CCN(CC)CCNC(=O)COc1ccc(-c2nc3c([nH]2)c(=O)n(C)c(=O)n3C)cc1           6.01
1  Cn1c(=O)c2[nH]c(-c3ccc(OCC(=O)N4CCCCC4)cc3)nc2n(C)c1=O           6.40

(a) COc1ccccc1NC(=O)Nc1nc(-c2cccnc2)nc2ccccc12
(b) Cc1cc(-c2sc(NC(=O)N3CCOC[C@@H]3CO)nc2-c2cccc(C#N)c2)cc(C)n1
(c) Cc1cc(-c2sc(NC(=O)N3CCC4(CC3)CNC4=O)nc2-c2cccc(C#N)c2)c(F)c(C)n1
(d) Cc1cc(-c2sc(NC(=O)N3CCOC(C(N)=O)C3)nc2-c2cccc(C#N)c2)cc(C)n1 (stereo unspecified)
(e) Cn1c(=O)c2[nH]c(-c3cccc(OCC(=O)N4CCCCC4)c3)nc2n(C)c1=O
[Q] Order the records so the highest pKi appears first and the lowest last. Ranked list of labels, please, in the requested order.
[A] c, d, b, e, a
(c: 8.85, d: 8.62, b: 7.66, e: 5.39, a: 5.00)
